Listing of recorded pIC50 by entry.
target: Recombinant human TPH1 (MBP tagged) (Homo sapiens, UniProt P17752); construct: cloning full length human TPH1 cDNA in to a bacterial pMAL-c5E expression vector; made in house; host or cells: E. coli BL21 (DE3); assay: TPH1 in vitro inhibition assay (kinetic fluorescence); assay type: biochemical; conditions: read-out: TPH1 Range (TPH1 inhibition IC50)
Sequence (P17752 whole entry): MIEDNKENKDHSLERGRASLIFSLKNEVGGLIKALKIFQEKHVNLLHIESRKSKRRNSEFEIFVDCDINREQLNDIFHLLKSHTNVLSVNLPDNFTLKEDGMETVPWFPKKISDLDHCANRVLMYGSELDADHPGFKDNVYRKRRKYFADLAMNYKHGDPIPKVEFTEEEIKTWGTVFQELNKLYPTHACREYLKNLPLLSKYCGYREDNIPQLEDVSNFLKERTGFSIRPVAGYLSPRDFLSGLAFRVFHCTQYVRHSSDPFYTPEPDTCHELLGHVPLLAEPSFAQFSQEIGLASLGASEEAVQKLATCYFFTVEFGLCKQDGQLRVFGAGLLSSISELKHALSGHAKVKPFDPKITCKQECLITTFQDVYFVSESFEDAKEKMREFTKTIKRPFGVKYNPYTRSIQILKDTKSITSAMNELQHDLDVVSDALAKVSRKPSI
pIC50: −log10 of the molar value.

>>> valuemeasured("Cc1ccn(-c2ccc(-c3ccc(Cl)c(Cl)c3)cc2[C@@H](Oc2cc(N3CCC4(CC3)CN[C@H](C(=O)O)C4)nc(N)n2)C(F)(F)F)n1 [Example 19p]")
"> 7.30"
>>> valuemeasured("Nc1nc(O[C@H](c2ccc(-c3ccc(OC(F)(F)F)cc3)cc2)C(F)(F)F)cc(N2CCC3(CC2)CN[C@H](C(=O)O)C3)n1 [Example 55cm]")
"5.52 to 6.52"
>>> valuemeasured("Cc1ccn(-c2cc(-c3ccc(C(=O)NCCN4CCOCC4)cc3)ccc2[C@@H](Oc2cc(N3CCC4(CC3)CN[C@H](C(=O)O)C4)nc(N)n2)C(F)(F)F)n1")
"> 7.30"
>>> valuemeasured("Nc1nc(NCc2ccccc2N2CCCCC2)nc(N2CCC3(CC2)CNC(C(=O)O)C3)n1 (stereo not drawn) [Example 39c]")
"5.00 to 5.52"
>>> valuemeasured("CN(C)Cc1ccccc1-c1ccc([C@@H](Oc2cc(N3CCC4(CC3)CN[C@H](C(=O)O)C4)nc(N)n2)C(F)(F)F)cc1 [Example 55by]")
"5.52 to 6.52"
>>> valuemeasured("Cc1ccn(-c2cc(-c3ccccc3)ccc2[C@@H](Oc2cc(N3CCC4(CC3)CN[C@H](C(=O)O)C4)nc(N)n2)C(F)(F)F)n1")
"> 7.30"

Give its pIC50 value. Item: Cc1ccn(-c2ccc(-c3ccc(C)c(C)c3)cc2[C@@H](Oc2cc(N3CCC4(CC3)CN[C@H](C(=O)O)C4)nc(N)n2)C(F)(F)F)n1 [Example 19e]
> 7.30

Entry Cc1ccn(-c2cc(-c3ccc(C)c(C)c3)ccc2[C@@H](Oc2cc(N3CCC4(CC3)CN[C@H](C(=O)O)C4)nc(C)n2)C(F)(F)F)n1 [Example 29d] : reported pIC50 = ?
> 7.30

# input compound: Nc1nc(O[C@H](c2ccc(Cl)cc2-c2cccc(C(=O)N3CCN(C4CC4)CC3)c2)C(F)(F)F)cc(N2CCC3(CC2)CN[C@H](C(=O)O)C3)n1 [Example 34cr] ; wanted: its pIC50
6.52 to 7.30

Param item = COc1ccc(-c2ccc([C@@H](Oc3cc(N4CCC5(CC4)CN[C@H](C(=O)O)C5)nc(N)n3)C(F)(F)F)cc2)c(OC)c1 [Example 55cc] ; retrieve measured pIC50.
6.52 to 7.30

What does the record list as pIC50 for CNC(=O)c1ccc(-c2ccc([C@@H](Oc3cc(N4CCC5(CC4)CN[C@H](C(=O)O)C5)nc(N)n3)C(F)(F)F)c(-n3ccc(C)n3)c2)cc1 ?
6.52 to 7.30

Please look up its pIC50: Cc1ccn(-c2cc(-c3ccc(OCC(C)C)cc3)ccc2[C@@H](Oc2cc(N3CCC4(CC3)CN[C@H](C(=O)O)C4)nc(N)n2)C(F)(F)F)n1
> 7.30

# credit: patent US11759462B2
